This collection of values is drawn from patent US20080234262A1.

Recorded IC50 by entry
System: breast line MDA468
Experiment: In vitro cell culture growth assay (MTS), MDA468
Type: cell-based, human
Conditions: Homo sapiens, 72 h, MDA468 cells, three days after drug treatment
// note: answer is a bare numeric in nM

Some compounds with recorded IC50:
CCNC(=O)Nc1ccc(-c2nc(N3CCOCC3)c3cnn(C4CCN(CC(F)(F)F)CC4)c3n2)cc1 [Compound 782]	300
O=C(Nc1ccc(-c2nc(N3CCOCC3)c3cnn(C4CCN(CC(F)(F)F)CC4)c3n2)cc1)NC1CC1 [Compound 788]	1600
COC(=O)Nc1ccc(-c2nc(N3CCOCC3)c3cnn(C4CCN(C(=O)c5ccccc5Cl)CC4)c3n2)cc1 [Example 444]	800
COC(=O)N1CCC(n2ncc3c(N4CCOCC4)nc(-c4ccc5[nH]ccc5c4)nc32)CC1 [Example 244]	2100
CCOC(=O)Nc1ccc(-c2nc(N3CCOCC3)c3cnn(C4CCN(Cc5ccccc5)CC4)c3n2)cc1 [Compound 207]	5200

q: Notebook: pull reported IC50 for breast line MDA468, entry CONC(=O)Nc1ccc(-c2nc(N3CCOCC3)c3cnn(C4CCN(Cc5ccccc5)CC4)c3n2)cc1 [Compound 286]
a: 200

q: Provide value of IC50 for this record tested with breast line MDA468: CC(=O)Nc1ccc(-c2nc(N3CCOCC3)c3cnn(CCN4CCCCC4)c3n2)cc1 [Compound 127]
a: 18000

---

Biological target: PI3K (Homo sapiens, UniProt P42336)
Sequence (P42336 whole entry): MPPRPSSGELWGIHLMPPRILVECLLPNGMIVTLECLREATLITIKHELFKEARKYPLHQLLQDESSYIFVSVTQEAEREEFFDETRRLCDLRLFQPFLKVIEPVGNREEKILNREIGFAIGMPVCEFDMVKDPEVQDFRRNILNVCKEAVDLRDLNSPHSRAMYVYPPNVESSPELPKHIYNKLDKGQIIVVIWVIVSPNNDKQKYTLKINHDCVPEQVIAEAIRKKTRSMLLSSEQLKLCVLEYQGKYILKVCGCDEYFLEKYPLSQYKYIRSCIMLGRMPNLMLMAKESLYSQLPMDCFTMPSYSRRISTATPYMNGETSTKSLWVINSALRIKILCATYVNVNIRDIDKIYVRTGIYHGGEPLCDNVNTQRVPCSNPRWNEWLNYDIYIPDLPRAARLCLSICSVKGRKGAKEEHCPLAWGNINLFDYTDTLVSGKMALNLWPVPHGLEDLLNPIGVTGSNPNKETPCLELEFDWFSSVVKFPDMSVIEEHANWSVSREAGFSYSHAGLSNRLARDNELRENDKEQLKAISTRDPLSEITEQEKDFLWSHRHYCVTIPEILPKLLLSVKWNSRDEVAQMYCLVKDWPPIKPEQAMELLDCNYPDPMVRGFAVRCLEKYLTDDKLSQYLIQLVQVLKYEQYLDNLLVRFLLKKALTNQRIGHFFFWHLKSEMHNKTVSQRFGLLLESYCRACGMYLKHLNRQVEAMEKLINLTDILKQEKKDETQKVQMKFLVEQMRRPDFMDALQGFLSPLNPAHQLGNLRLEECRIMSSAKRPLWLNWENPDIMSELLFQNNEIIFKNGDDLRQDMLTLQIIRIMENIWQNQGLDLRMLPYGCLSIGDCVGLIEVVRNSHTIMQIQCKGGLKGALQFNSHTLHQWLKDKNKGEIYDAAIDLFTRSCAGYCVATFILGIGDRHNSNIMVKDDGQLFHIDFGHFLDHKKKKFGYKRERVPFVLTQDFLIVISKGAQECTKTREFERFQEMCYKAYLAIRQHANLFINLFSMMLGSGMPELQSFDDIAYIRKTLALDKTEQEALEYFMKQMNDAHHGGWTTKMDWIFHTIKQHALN
Sequence (P27986 whole entry partner): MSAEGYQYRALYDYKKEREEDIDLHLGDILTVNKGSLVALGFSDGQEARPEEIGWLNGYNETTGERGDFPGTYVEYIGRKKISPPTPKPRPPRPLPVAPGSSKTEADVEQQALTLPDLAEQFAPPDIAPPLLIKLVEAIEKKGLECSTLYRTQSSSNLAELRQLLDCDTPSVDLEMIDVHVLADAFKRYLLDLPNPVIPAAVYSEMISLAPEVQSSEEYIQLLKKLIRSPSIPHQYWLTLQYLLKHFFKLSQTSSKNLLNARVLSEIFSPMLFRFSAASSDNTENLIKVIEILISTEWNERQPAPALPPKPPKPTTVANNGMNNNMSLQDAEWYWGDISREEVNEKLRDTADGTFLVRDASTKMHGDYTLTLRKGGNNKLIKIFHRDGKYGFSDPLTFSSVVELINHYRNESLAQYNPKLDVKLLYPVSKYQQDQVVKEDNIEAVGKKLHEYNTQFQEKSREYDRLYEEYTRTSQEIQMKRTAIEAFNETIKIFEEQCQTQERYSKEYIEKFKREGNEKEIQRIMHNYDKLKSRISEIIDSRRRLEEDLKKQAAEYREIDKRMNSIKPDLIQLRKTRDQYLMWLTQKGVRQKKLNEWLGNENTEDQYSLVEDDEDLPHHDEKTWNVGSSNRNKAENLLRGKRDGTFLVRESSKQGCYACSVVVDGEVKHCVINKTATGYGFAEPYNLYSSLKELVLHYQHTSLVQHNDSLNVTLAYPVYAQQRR
Assay: Fluorescence polarization assay for PI3K;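 also: PI3K kinase reaction on PIP2 with ATP, 30-60 min, product sensed by GST-GRP with red probe in fluorescence polarization (mP), controls without enzyme and at zero time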
Format: biochemical
Details: PI3Kα IC50, PI3Kα
reported_endpoint: IC50 (µM)
// note: answer is a bare numeric in µM

COC(=O)N1CCC(n2ncc3c(N4CCOCC4)nc(-c4ccc(NC(=O)Oc5ccc(F)cc5)cc4)nc32)CC1 [Compound 948]	8.83
O=C(Oc1ccccc1)N1CCC(n2ncc3c(N4CCOCC4)nc(-c4ccc5[nH]ccc5c4)nc32)CC1 [Compound 243]	0.535

q: Suppose we examine the compound COC(=O)N1CCC(n2ncc3c(N4CCOCC4)nc(-c4ccc(NC(=O)Oc5ccccc5F)cc4)nc32)CC1 [Compound 866] ; what IC50 value has been reported?
a: 12

---

Biological target: PI3K (Homo sapiens)
Assay: Fluorescence polarization assay for PI3K
Assay type: biochemical
Details: PI3Kα; read-out: PI3Kα IC50
In plain terms, low IC50, meaning strictly below 1000 nM, gives rule met, and everything else gives rule not met.

Use these answered entries as a reference point.
CC(C)OC(=O)N1CCC(n2ncc3c(N4CCOCC4)nc(-c4ccc(NC(=O)Nc5ccncc5)cc4)nc32)CC1	rule met
Oc1cccc(-c2nc(N3CCCOCC3)c3cnn(-c4ccccc4)c3n2)c1	rule not met
CNC(=O)Nc1ccc(-c2nc(N3CCOCC3)c3cnn(C4CCN(C(=O)COC)CC4)c3n2)cc1 [Compound 718]	rule met
CCCOC(=O)N1CCC(n2ncc3c(N4CCOCC4)nc(-c4ccc(NC(=O)NCC)cc4)nc32)CC1	rule met

q: I wonder whether CCOC(=O)N1CCC(n2ncc3c(N4CCOC[C@H]4C)nc(-c4ccc(NC(=O)NCCF)cc4)nc32)CC1 has IC50 below 1000 nM. Can you tell?
a: rule not met

q: # TODO verify IC50 < 1000 nM strictly for this compound: CN(C)CCCn1ncc2c(N3CCOCC3)nc(-c3ccc4[nH]ccc4c3)nc21
a: rule not met

q: Is IC50 strictly under 1000 nM for the entry COC(=O)Nc1ccc(-c2nc(N3CCOCC3)c3cnn(C4CCN(CC(=O)c5ccccc5)CC4)c3n2)cc1 [Compound 701] ?
a: rule met
